# experiment: Solubility / complexation of paclitaxel with cyclodextrins
# Assay type: physicochemical
# protocol.conditions: 50% HPβ-CD in water, aqueous with cosolvent or surfactant or cyclodextrin, thermodynamic from solid; 50% solution of HPβ-CD in water, 37° C.
# Protocol: The mobile phase was composed of a mixture of acetonitrile, methanol and water (58:5:37) at a flow rate of 1.0 ml/minute.
observation.type: solubility
The reply should read as a number followed by its unit.

Prompt: Which solubility is reported for this compound? `CC(=O)O[C@H]1C(=O)[C@@]2(C)[C@H]([C@H](OC(=O)c3ccccc3)[C@]3(O)C[C@H](OC(=O)[C@H](O)[C@@H](NC(=O)c4ccccc4)c4ccccc4)C(C)=C1C3(C)C)[C@]1(OC(C)=O)CO[C@@H]1C[C@@H]2O`
Completion: 3200 µg/mL

====

# Test system: chick chorioallantoic membrane (CAM) vasculature
# protocol.conditions: PCL paste (3 mg), 1%

- smiles.text: "CC[C@@]1(O)C(=O)OCc2c1cc1n(c2=O)Cc2cc3ccccc3nc2-1"
  Inhibition/n: "⅔"
- smiles.text: "Nc1ncnc2c1ccn2[C@@H]1O[C@H](CO)[C@@H](O)[C@H]1O"
  Inhibition/n: "⅓"

Origin of the recorded values: patent US6689803B2
